tested on: IL-6-GFP PC-9GR; assay: cell viability (CCK-8 OD) relative to DMSO control (fraction of control); higher = more viable cells; conditions: compound concentration: 10 uM; treatment time: 48 h
Threshold 0.8: cell viability strictly smaller gives rule met, otherwise rule not met.

COMPOUND: CC(=O)OC[C@H]1O[C@@H]([S-])[C@H](OC(C)=O)[C@@H](OC(C)=O)[C@@H]1OC(C)=O.CCP(CC)CC.[Au+]
TARGET UNDER TEST: IL-6-GFP PC-9GR
LABEL CLASS: rule met
//
COMPOUND: CC1CC2C(C(O)CC3(C)C2CCC3(O)C(=O)COC(=O)CCC(=O)O)C2(C)C=CC(=O)C=C12 (configuration not stated) [Methylprednisolone hemisuccinate]
TARGET UNDER TEST: IL-6-GFP PC-9GR
LABEL CLASS: rule not met
//
COMPOUND: CNC(=O)c1cc(Oc2ccc(NC(=O)Nc3ccc(Cl)c(C(F)(F)F)c3)cc2)ccn1.Cc1ccc(S(=O)(=O)O)cc1 [Sorafenib Tosylate]
TARGET UNDER TEST: IL-6-GFP PC-9GR
LABEL CLASS: rule not met
//
COMPOUND: CC(C)C1C(=O)NC(CCCNC(=N)N)C(=O)NCC(=O)NC(CC(=O)O)C(=O)NC(Cc2ccccc2)C(=O)N1C.O=C(O)C(F)(F)F (configuration not stated)
TARGET UNDER TEST: IL-6-GFP PC-9GR
LABEL CLASS: rule not met
//
COMPOUND: CCCC(=O)OC1(C(=O)CO)CCC2C3CCC4=CC(=O)CCC4(C)C3C(O)CC21C (configuration not stated) [Hydrocortisone butyrate]
TARGET UNDER TEST: IL-6-GFP PC-9GR
LABEL CLASS: rule not met
//
COMPOUND: CCCCCOC(=O)Nc1nc(=O)n(C2OC(C)C(O)C2O)cc1F (configuration not stated)
TARGET UNDER TEST: IL-6-GFP PC-9GR
LABEL CLASS: rule met

---

system: IL-6-GFP PC-9GR; experiment: cell viability (CCK-8 OD) relative to DMSO control (fraction of control); higher = more viable cells; conditions: compound concentration: 10 uM; treatment time: 48 h

COMPOUND: CCOc1ccccc1OCCNC(C)Cc1ccc(OC)c(S(N)(=O)=O)c1 (stereo not drawn)
cell viability: 1.37
--
COMPOUND: CC1CC2C3CCC4=CC(=O)C=CC4(C)C3(Cl)C(O)CC2(C)C1(OC(=O)c1ccco1)C(=O)CCl (stereo not drawn) [Mometasone furoate]
cell viability: 1.12
--
COMPOUND: CCC(C)C(=O)OC1CC(O)C=C2C=CC(C)C(CCC(O)CC(O)CC(=O)[O-])C21.[Na+] (stereo not drawn) [Pravastatin sodium]
cell viability: 0.932
--
COMPOUND: COC1CC2CCC(C)C(O)(O2)C(=O)C(=O)N2CCCCC2C(=O)OC(C(C)CC2CCC(OCCO)C(OC)C2)CC(=O)C(C)/C=C(\C)C(O)C(OC)C(=O)C(C)CC(C)/C=C/C=C/C=C/1C (stereo not drawn) [Everolimus (RAD001)]
cell viability: 0.985
--
COMPOUND: CNNCc1ccc(C(=O)NC(C)C)cc1.Cl [Procarbazine HCl]
cell viability: 1.02
--
COMPOUND: O=c1[nH]cc(F)c(=O)[nH]1
cell viability: 0.731
--
COMPOUND: Cl.NC1=NCC2c3ccccc3Cc3ccccc3N12 (stereo not drawn) [Epinastine HCl]
cell viability: 0.994
--
COMPOUND: CS(=O)(=O)n1cc2c(n1)CN(C1COC(c3cc(F)ccc3F)C(N)C1)C2 (stereo not drawn)
cell viability: 0.931
